Attribute: normalized growth
test: chemical genetic growth profiling, strain panel (AID 1159580);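 also: tested at 20 µM; growth read once vehicle control cultures reached saturation at 30 °C; 1 = growth at the plate median or of vehicle wells; lower values mean less growth of the strain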
experimental_context: S. cerevisiae deletion strains, growth OD, locus YPR163C, strain tif3, hits give low values
The campaign covered roughly 5,500 compounds. About 2,000 (36%) were called active. Another 18% or so got no clear call; they are omitted. Some of the results follow.
test_readout: normalized growth

> print(dat)
                                    compound       test.readout            result
 1  CC(C)C(=O)Nc1ccc([N+](=O)[O-])c(C(F)(F)F)c1  normalized growth  0.987 (inactive)
 2        O=C(O)CN1C(=O)c2cccc3cccc(c23)C1=O  normalized growth   0.99 (inactive)
 3  C=C1C(=O)OC2CC1C(OC(C)=O)C/C(C)=C/CC/C(C)=C/CC[C@]2(C)O (stereo partly specified)  normalized growth      1 (inactive)
 4  COc1ccc(CCN2CCC(Nc3nc4ccccc4n3Cc3ccc(F)cc3)CC2)cc1  normalized growth  0.988 (inactive)
 5  Nc1ccn(C2O[C@H](CO)[C@@H](O)[C@@H]2O)c(=O)n1 (stereo partly specified)  normalized growth   1.01 (inactive)
 6               NC(N)=NS(=O)(=O)c1ccc(N)cc1  normalized growth  0.997 (inactive)
 7  CC1(C)NC(=O)N(c2ccc([N+](=O)[O-])c(C(F)(F)F)c2)C1=O  normalized growth  0.979 (inactive)
 8        OC(Cn1cncn1)(Cn1cncn1)c1ccc(F)cc1F  normalized growth  0.995 (inactive)
 9  C=C1C(=O)O[C@@H]2C[C@@]3(C)CCC[C@H](C)C3=C[C@H]12  normalized growth    0.749 (active)
10  O=C1[C@H](CCC(O)c2ccc(F)cc2)[C@@H](c2ccc(O)cc2)N1c1ccc(F)cc1 (stereo partly specified)  normalized growth  0.962 (inactive)
11  C=C1C(=O)O[C@@H]2C3O[C@]3(C)CC/C=C(\C)CC[C@@H]12 (stereo partly specified)  normalized growth    0.355 (active)
